Source of measurements: patent US8058290B2

- testTarget: human Tie2 (Homo sapiens)
- Construct: corresponding to the intracellular domain amino acids 776-1124 was generated by PCR
- Sequence (Q02763 776-1124): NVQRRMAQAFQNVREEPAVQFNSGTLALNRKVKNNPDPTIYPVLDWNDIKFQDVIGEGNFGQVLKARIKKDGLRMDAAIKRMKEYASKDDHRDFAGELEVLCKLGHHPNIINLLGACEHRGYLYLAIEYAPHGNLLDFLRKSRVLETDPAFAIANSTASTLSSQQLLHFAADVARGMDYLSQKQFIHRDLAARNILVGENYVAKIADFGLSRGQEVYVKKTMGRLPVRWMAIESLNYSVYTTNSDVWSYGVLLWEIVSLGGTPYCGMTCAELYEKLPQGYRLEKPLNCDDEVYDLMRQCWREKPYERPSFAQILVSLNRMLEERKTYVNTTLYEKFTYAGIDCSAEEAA
- experimentalDetails: Tie2 PLC phosphorylation assay (GST-Tie2, FlashPlate)
- statedConditions: GST-Tie2 intracellular domain, 2 μM cold ATP, 1 hour at 37° C.; read-out: IC 50 Tie2
- Description: The human Tie2 coding sequence corresponding to the intracellular domain amino acids 776-1124 was generated by PCR using the cDNA isolated from human placenta as model. […] The inhibitory effect of the molecules is determined in an assay of PLC phosphorylation by Tie2 in the presence of GST-Tie2 purified to approximately 80% of homogeneity. […] The kinase activity of Tie2 is measured in a 20 mM MOPS buffer, pH 7.2, containing 10 mM MgCl2, 10 mM MnCl2, 1 mM DTT and 10 mM of glycerophosphate. […]
pIC50: −log10 of the molar value.
Returns one of true or false; true when pIC50 is >= 7.

Check if pIC50 >= 7 (inclusive). Item: O=C(Nc1ccc(-c2cc(C(=O)NCCN3CCOCC3)c3cn[nH]c3n2)cn1)Nc1cc(C(F)(F)F)ccc1F [Example 21]
false

Check if pIC50 >= 7 (inclusive). Item: CNC(=O)c1cc(-c2ccc(NC(=O)Nc3cc(C(F)(F)F)ccc3F)nc2)nc2[nH]ncc12 [Example 20]
false

Check if pIC50 >= 7 (inclusive). Item: O=C(Nc1ncc(-c2cc(C(=O)NCc3ccccn3)c3cn[nH]c3n2)s1)Nc1cc(C(F)(F)F)ccc1F [Example 29]
true

Check if pIC50 >= 7 (inclusive). Item: O=C(Nc1ncc(-c2cc(C(=O)NCCCN3CCOCC3)c3cn[nH]c3n2)s1)Nc1cc(C(F)(F)F)ccc1F [Example 22]
true

Check if pIC50 >= 7 (inclusive). Item: CNC(=O)c1cc(-c2ccc(NS(=O)(=O)c3cccc(Cl)c3Cl)cc2)nc2[nH]ncc12 [Example 5]
true

Check if pIC50 >= 7 (inclusive). Item: O=C(Nc1ncc(-c2cc(C(=O)N3CCNCC3)c3cn[nH]c3n2)s1)Nc1cc(C(F)(F)F)ccc1F [Example 16]
true

###

Counter-ions that a name gives are not always drawn.
assayMetric: pIC50
pIC50 here: minus log base 10 of the concentration, concentration in moles per litre.

# lookup: O=C(Nc1ncc(-c2cc(C(=O)NCCN3CCOCC3)c3cn[nH]c3n2)s1)Nc1cc(C(F)(F)F)ccc1F [Example 4, trifluoroacetate] on human FAK (Homo sapiens, UniProt Q05397), pIC50 = 6.46

# lookup: CNC(=O)c1cc(-c2cnc(NC(=O)Nc3cc(C(F)(F)F)ccc3F)s2)nc2[nH]ncc12 [Example 11] on human FAK (Homo sapiens, UniProt Q05397), pIC50 = 6.03
